Reported IC50 values for a set of molecules
Test system: Cell-based VP16 transactivation luciferase reporter, luminescence
Assay: compounds lowering VP16-driven luciferase output – cell-based, luminescence, counter-screen for LRH-1 inverse agonist project, dose response (AID 651973)
The source made the active and inactive calls. How the calls were made is not given here.

| molecule | IC50 |
| --- | --- |
| CS(=O)(=O)c1ccc(-c2cc(NC=O)c3ncc(-c4ccc(F)cc4)n3c2)cc1 | 14.6 µM (inactive) |
| CCc1cc(=O)oc2cc(C)cc(OCC(=O)NC3CC3)c12 | > 35.9 µM (inactive) |
| COC(=O)c1ccc(NC(=O)COc2cccc(-n3cnnn3)c2)cc1 | > 35.9 µM (inactive) |
| Cc1ccc(NC(=O)CSc2sc3c(O)cc(=O)[nH]c3c2C#N)c(F)c1 | > 35.9 µM (inactive) |
| O=C(COc1ccc2c3c(c(=O)oc2c1)CCCC3)NCCCN1CCOCC1 | > 35.9 µM (inactive) |
| COc1ccc(NC(=O)CSc2ccc3c(c2)OCCO3)cc1 | > 35.9 µM (inactive) |
| O=C(CSc1nncc(=O)[nH]1)Nc1cccc([N+](=O)[O-])c1 | 34.4 µM (inactive) |
| COc1cc(C(=O)Nc2ccccc2C2COC(=O)C2=N)cc(OC)c1OC (stereo not drawn) | > 35.9 µM (inactive) |
| Cc1cc(=O)oc2c(C)c(OCC(=O)NC3CC(C)(C)NC(C)(C)C3)ccc12 | > 35.9 µM (inactive) |
| CCCN(CC(=O)Nc1ccccc1C)CC(=O)Nc1ccc(Br)cc1F | > 35.9 µM (inactive) |
| O=C(COC(=O)c1ccc(=O)n(Cc2ccccc2)n1)Nc1ccc2c(c1)OCCO2 | > 35.9 µM (inactive) |
| Cc1c(Cl)cccc1NC(=O)CS(=O)(=O)c1ccccc1 | > 35.8 µM (inactive) |
| COc1ccc(NC(=O)CN2C(=O)NC3(CCCC3)C2=O)cc1 | > 35.9 µM (inactive) |
| O=C(NCc1cccnc1)c1cccc2c1C(=O)N(C1CCCCC1)C2 | > 35.9 µM (inactive) |
| CC(=O)Nc1cc(-c2cccc(F)c2)cn2c(-c3ccc(S(C)(=O)=O)cc3)cnc12 | 18.7 µM (inactive) |
| Cc1ccc2cccc(OCC(=O)NCCC3=CCCCC3)c2n1 | > 35.8 µM (inactive) |
| COc1ccc(OCCNC(=O)C2(C)CCN2Cc2ccc(SC)cc2)cc1 (stereo not drawn) | 28.5 µM (inactive) |
| Cc1ccc(NC(=O)COC(=O)C(NS(=O)(=O)c2ccc(Cl)cc2)C(C)O)cc1C (stereo not drawn) | > 35.9 µM (inactive) |
| CN1CCN(c2ccc(S(=O)(=O)N3CCCCC3)cc2NC(=O)COc2ccc([N+](=O)[O-])cc2)CC1 | > 35.9 µM (inactive) |
| Cc1ccc(NC(=O)COC(=O)c2cc(=O)c3ccccc3o2)c(Br)c1 | > 35.9 µM (inactive) |
| O=C(COC(=O)CCN1C(=O)C2CC=CCC2C1=O)NCCc1ccccc1 (stereo not drawn) | > 35.9 µM (inactive) |
| O=C(Nc1ccccc1)c1oc2ccccc2c1NC(=O)C1CC1 | > 35.9 µM (inactive) |
| CC(C)Oc1cccc(-c2cc(C(=O)NN3CCOCC3)c3ccccc3n2)c1 | > 35.9 µM (inactive) |
| CCOc1ccc(NC(=O)COC(=O)C2CCC(=O)N2)c([N+](=O)[O-])c1 (stereo not drawn) | > 35.8 µM (inactive) |
| Cc1nn(Cc2ccccc2)c(C)c1C(=O)OCC(=O)Nc1ccccc1SCC#N | > 35.9 µM (inactive) |
| O=C(COc1ccc2c3c(c(=O)oc2c1)CCC3)NCc1ccncc1 | > 35.9 µM (inactive) |
| COC(=O)c1ccc(NC(=O)CSc2nc3ncccc3[nH]2)cc1 | > 35.9 µM (inactive) |
| CC(=O)Nc1ccc(NC(=O)CSc2nnc(NC(=O)C3CC3)s2)cc1 | > 35.9 µM (inactive) |
| O=C(CSc1nc(=O)n2cc(Cl)ccc2n1)Nc1ccc2c(c1)OCCO2 | > 35.9 µM (inactive) |
| O=C(COc1ccc2c3c(c(=O)oc2c1)CCCC3)NCCN1CCOCC1 | > 35.8 µM (inactive) |
| O=C(COc1ccc(S(=O)(=O)N2CCCC2)cc1Cl)Nc1ccc2c(c1)OCO2 | > 35.9 µM (inactive) |
| CC1(C(=O)NCc2ccc3c(c2)OCO3)CCN1C(=O)Cc1ccc(Cl)cc1Cl (stereo not drawn) | > 35.9 µM (inactive) |
| NC(=O)C1CCN(C(=O)COc2ccc3c4c(c(=O)oc3c2)CCC4)CC1 | > 35.9 µM (inactive) |
| CCOc1ccc(OCCC(=O)OCC(=O)Nc2ccc3c(c2)OCCO3)cc1 | > 35.9 µM (inactive) |
| CCOc1ccc(CCNC(=O)CN2C(=O)NC3(CCc4ccccc43)C2=O)cc1OCC (stereo not drawn) | > 35.9 µM (inactive) |
| O=C(Cc1ccc(S(=O)(=O)N2CCCC2)s1)Nc1cccc([N+](=O)[O-])c1 | 14.1 µM (inactive) |
| O=[N+]([O-])c1ccc(N2CCN(S(=O)(=O)c3ccccc3)CC2)cc1NCc1cccnc1 | > 35.9 µM (inactive) |
| Cc1onc(NC(=O)c2ccc([N+](=O)[O-])o2)c1Br | > 35.9 µM (inactive) |
| O=C(NC1CCCC(C(F)(F)F)C1)c1ccc([N+](=O)[O-])o1 (stereo not drawn) | > 35.9 µM (inactive) |
| CN(C)S(=O)(=O)c1cccc(C(=O)OCC(=O)Nc2ccc3c(c2)OCCO3)c1 | > 35.9 µM (inactive) |
| NS(=O)(=O)c1ccc(O)c(NC(=O)c2ccc([N+](=O)[O-])o2)c1 | > 35.9 µM (inactive) |
| COC(=O)c1ccc(N2CCCCC2)c(NC(=O)c2ccco2)c1 | 13.3 µM (inactive) |
| COc1ccc(CCNC(=O)COC(=O)c2cccn2C)cc1 | > 35.9 µM (inactive) |

* * *

Tested on: Cell-based VP16 transactivation luciferase reporter, luminescence
Assay: compounds lowering VP16-driven luciferase output – cell-based, luminescence, counter-screen for LRH-1 inverse agonist project, dose response (AID 651973)
Active and inactive are the calls of the source. No rule for the calls is given here.
Outcome codes: active, inactive

| compound | qualitative-label |
| --- | --- |
| Cc1ccc(-c2nn3c(C)nnc3s2)cc1NC(=O)c1ccco1 | inactive |
| COc1ccccc1Oc1nnnn1-c1ccc(C(N)=O)cc1 | inactive |
| COC(=O)c1ccc(COc2ccc(/C=N/NC(N)=S)cc2)o1 | inactive |
| COC(=O)c1ccc(NC(=O)CSc2ccc(-c3ccccn3)nn2)cc1 | inactive |
| COc1ccc(NC(=O)COC(=O)Cc2c[nH]c3ccccc23)cc1Cl | inactive |
| COc1ccc(CCNC(=O)CSc2ccc(NC(C)=O)cc2)cc1OC | inactive |
| CCn1cc(Br)c(C(=O)Nc2ccccc2C(=O)OC)n1 | inactive |
| CC(C)CC1(C)NC(=O)N(CC(=O)Nc2ccc3c(c2)OCCO3)C1=O (centres undefined) | inactive |
| COc1cc([N+](=O)[O-])ccc1NC(=O)Cn1ccsc1=N | inactive |
| COc1ccc(CCNC(=O)CN2C(=O)NC3(CCCCC3C)C2=O)cc1 (centres undefined) | inactive |
| Cc1cc(C)c2sc(NC(=O)c3ccc([N+](=O)[O-])o3)nc2c1 | inactive |
| CCOCC(=O)Nc1ccc(S(=O)(=O)NCCc2ccccc2)cc1 | inactive |
| COc1ccc(NC(=O)CSc2nc(N)c(-c3ccccc3)c(=O)[nH]2)cc1 | inactive |
| O=C1CCCN2N=C(SCC(=O)Nc3ccc(Br)cc3)SC2=N1 | inactive |
| CC(O)(c1cccc(F)c1)c1nc(-c2ccc(S(C)(=O)=O)cc2)cs1 (centres undefined) | inactive |
| CC(O)(c1ccc(F)c(F)c1)c1nc(-c2ccc(S(C)(=O)=O)cc2)cs1 (centres undefined) | inactive |
| COc1ccc(S(=O)(=O)N2CCN(CC(=O)Nc3ccc(C)c(F)c3)CC2)cc1 | inactive |
| COc1ccc(C2(C)NC(=O)N(CC(=O)NCCC3=CCCCC3)C2=O)cc1OC (centres undefined) | inactive |
| CCc1cc(=O)oc2c(C)c(OCC(=O)NCCCN3CCOCC3)ccc12 | inactive |
| Cc1cc(Br)ccc1NC(=O)CN1C(=O)CCC1=O | inactive |
| Cc1onc(-c2c(F)cccc2Cl)c1C(=O)O/N=C(\N)c1ccc([N+](=O)[O-])o1 | inactive |
| O=C(Nc1ccccc1C(=O)Nc1nccs1)c1ccccc1 | inactive |
| Cc1ccc(NC(=O)COC(=O)C(NS(=O)(=O)c2ccc(Cl)cc2)C(C)O)c(Br)c1 (centres undefined) | inactive |
| COc1cc(NC(=O)Cn2ccsc2=N)c(C)cc1[N+](=O)[O-] | inactive |
| CCCc1nnc(SCC(=O)Nc2ccc(OC)cc2)o1 | inactive |
| CCCc1cc(=O)oc2cc(OCC(=O)NCCc3ccc(S(N)(=O)=O)cc3)ccc12 | inactive |
| Cc1cccc(NC(=O)COC(=O)CN2C(=O)c3ccccc3C2=O)c1C | inactive |
| COc1ccc(NC(=O)CSc2nc3nc(C)cc(C)c3c(=O)[nH]2)cc1 | inactive |
| CCCOc1ccc(NC(=O)CC2C(=O)N(C)C(=S)N2Cc2ccc3c(c2)OCO3)cc1 (centres undefined) | active |
| Cc1ccc(NC(=O)CN2C(=O)NC(C)(CC(C)C)C2=O)c(Br)c1 (centres undefined) | inactive |
| O=C(COC(=O)c1ccc[n+]([O-])c1)Nc1ccc([N+](=O)[O-])cc1Cl | inactive |
| Cc1sc(NC(=O)C(C)C)c(C(=O)Nc2ccccc2)c1C | inactive |
| CC(=O)c1ccc(NC(=O)C(C)O/N=C(\N)c2ccccc2)cc1 (centres undefined) | inactive |
| CC(=O)Nc1ccc(NC(=O)CSc2nnnn2C2CCCCC2)cc1 | inactive |
| COc1ccnc(Oc2ccccc2)c1C(=O)N/C=N/OCc1ccccc1F | inactive |
| CC1CC(C)CN(c2cc(N(C)CCO)c([N+](=O)[O-])c3nonc23)C1 (centres undefined) | inactive |
| COc1ccc(NC(=O)CSc2sc3c(O)cc(=O)[nH]c3c2C#N)c(OC)c1 | inactive |
| O=C(COc1ccc2c3c(c(=O)oc2c1)CCCC3)NCc1ccccn1 | inactive |
| COc1cccc(C(=O)COc2cccc(NC(=O)c3cccc([N+](=O)[O-])c3)c2)c1 | active |
| COC(=O)c1ccc(NC(=O)CSc2nncn2-c2cccnc2)cc1 | inactive |
| Cc1onc(-c2ccccc2Cl)c1C(=O)O/N=C(\N)c1ccc([N+](=O)[O-])o1 | inactive |
| O=C(CN1C(=O)NC2(CCCC2)C1=O)NCCc1ccc(F)cc1 | inactive |
| CCc1c(C)nc(SCC(=O)Nc2ccc3c(c2)OCCO3)[nH]c1=O | inactive |
| CCOc1ccc(NC(=O)COC(=O)CC2CCCCC2)cc1 | inactive |
